ASSAYED_SYSTEM: BTK (Homo sapiens)
ASSAY_PROCEDURE: BTK phosphorylation in Ramos cells after anti-IgM stimulation (ProteinSimple Wes)
Type: cell-based
Design: endogenous in cells; host or cells: Ramos Burkitt's lymphoma cells (ATCC CRL-1596)
REPORTED_CONDITIONS: 30 min pre-treatment, anti-IgM stimulation, read-out: IC50, BTK auto-phosphorylation at Y223
READOUT_KIND: IC50

Inquiry: Name the reported IC50 value associated with the molecule C=CC(=O)N1CCC(F)(CNc2ncnc(N)c2-c2ccc(Oc3ccccc3)cc2)CC1
Reply text: 1 to 10 nM

---

Target sequence: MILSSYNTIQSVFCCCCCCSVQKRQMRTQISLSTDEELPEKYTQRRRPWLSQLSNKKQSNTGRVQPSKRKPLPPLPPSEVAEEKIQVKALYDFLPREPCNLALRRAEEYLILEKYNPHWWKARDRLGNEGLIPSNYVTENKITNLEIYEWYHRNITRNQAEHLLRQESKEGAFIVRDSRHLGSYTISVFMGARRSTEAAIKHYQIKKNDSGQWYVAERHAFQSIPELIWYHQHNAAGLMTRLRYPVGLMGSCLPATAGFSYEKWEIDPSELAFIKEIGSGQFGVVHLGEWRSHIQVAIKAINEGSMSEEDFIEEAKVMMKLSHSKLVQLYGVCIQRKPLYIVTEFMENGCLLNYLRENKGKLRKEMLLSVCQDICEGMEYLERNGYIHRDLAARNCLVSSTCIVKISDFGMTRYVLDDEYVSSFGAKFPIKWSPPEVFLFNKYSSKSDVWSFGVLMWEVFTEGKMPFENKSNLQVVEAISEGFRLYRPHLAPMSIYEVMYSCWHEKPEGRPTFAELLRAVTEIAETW
READOUT_KIND: pIC50
For clarity, pIC50 is expressed as the negative log10 of concentration in mol/L.

Inquiry: Name the reported pIC50 value associated with the molecule C=CC(=O)N1CCC(F)(CNc2ncnc(N)c2-c2ccc(Oc3ccccc3)cc2)CC1
Reply text: 7.21

---

Test system: JVM-2
ASSAY_PROCEDURE: Cell viability, ATPlite
Type: cell-based
REPORTED_CONDITIONS: Homo sapiens; JVM-2 (MCL), 72 h
READOUT_KIND: IC50 (µM)
Kindly answer with a numeric value in µM, unit omitted.

Inquiry: Name the reported IC50 value associated with the molecule C=CC(=O)N1CCC(F)(CNc2ncnc(N)c2-c2ccc(Oc3ccccc3)cc2)CC1
Reply text: 17.9

---

Tested on: Pfeiffer
ASSAY_PROCEDURE: Cell viability, ATPlite
Format: cell-based
REPORTED_CONDITIONS: Homo sapiens; Pfeiffer (GCB-DLBCL), 72 h
Protocol: The potency of TL-895 effects on cell viability was further examined in vitro in a panel of diffuse large B-cell lymphoma (DLBCL) and MCL cell lines, comprising ten germinal B-cell like subtype (GCB)-DLBCL cell lines, six activated B-cell like (ABC)-DLBCL cell lines, and six MCL cell lines (Horizon Discovery Inc, Cambridge MA, USA). […] ATP levels were analyzed using the ATPlite Luminescence Assay System (Perkin Elmer, UK). […]
READOUT_KIND: IC50 (µM)
Kindly answer with a numeric value in µM, unit omitted.

Inquiry: Name the reported IC50 value associated with the compound C=CC(=O)N1CCC(F)(CNc2ncnc(N)c2-c2ccc(Oc3ccccc3)cc2)CC1
Reply text: 21

---

ASSAYED_SYSTEM: BTK (Homo sapiens, UniProt Q06187)
Sequence (Q06187 whole entry): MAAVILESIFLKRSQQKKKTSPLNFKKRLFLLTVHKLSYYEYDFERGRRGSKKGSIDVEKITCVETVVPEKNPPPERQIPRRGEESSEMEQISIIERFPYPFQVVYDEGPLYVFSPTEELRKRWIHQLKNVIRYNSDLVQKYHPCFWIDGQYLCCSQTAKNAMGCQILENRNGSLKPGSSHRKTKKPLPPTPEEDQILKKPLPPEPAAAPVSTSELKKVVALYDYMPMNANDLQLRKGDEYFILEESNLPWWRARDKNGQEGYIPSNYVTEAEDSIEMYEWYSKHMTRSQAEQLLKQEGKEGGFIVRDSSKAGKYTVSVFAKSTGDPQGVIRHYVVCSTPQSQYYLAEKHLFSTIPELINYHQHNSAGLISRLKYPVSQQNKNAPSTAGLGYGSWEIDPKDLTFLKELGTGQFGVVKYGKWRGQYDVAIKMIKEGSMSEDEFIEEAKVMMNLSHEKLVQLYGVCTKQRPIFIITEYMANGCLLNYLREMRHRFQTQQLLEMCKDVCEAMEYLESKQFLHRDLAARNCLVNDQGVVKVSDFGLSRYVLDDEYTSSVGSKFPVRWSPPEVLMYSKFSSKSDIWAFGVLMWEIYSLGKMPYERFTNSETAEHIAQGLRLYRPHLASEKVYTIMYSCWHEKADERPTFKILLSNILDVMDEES
ASSAY_PROCEDURE: Off-Chip mobility shift kinase assay (potency)
Assay type: biochemical
Set-up: Purified full-length recombinant BTK (Carna Biosciences #08–080); purchased Carna Biosciences 08–080
REPORTED_CONDITIONS: 75 µM ATP, 90 min, n = 9
READOUT_KIND: pIC50
For clarity, pIC50 is expressed as the negative log10 of concentration in mol/L.

Inquiry: Name the reported pIC50 value associated with the molecule C=CC(=O)N1CCC(F)(CNc2ncnc(N)c2-c2ccc(Oc3ccccc3)cc2)CC1 [TL-895]
Reply text: 8.82

---

ASSAYED_SYSTEM: BMX (Homo sapiens, UniProt P51813)
Construct: purchased EMD Millipore
Sequence (P51813 whole entry): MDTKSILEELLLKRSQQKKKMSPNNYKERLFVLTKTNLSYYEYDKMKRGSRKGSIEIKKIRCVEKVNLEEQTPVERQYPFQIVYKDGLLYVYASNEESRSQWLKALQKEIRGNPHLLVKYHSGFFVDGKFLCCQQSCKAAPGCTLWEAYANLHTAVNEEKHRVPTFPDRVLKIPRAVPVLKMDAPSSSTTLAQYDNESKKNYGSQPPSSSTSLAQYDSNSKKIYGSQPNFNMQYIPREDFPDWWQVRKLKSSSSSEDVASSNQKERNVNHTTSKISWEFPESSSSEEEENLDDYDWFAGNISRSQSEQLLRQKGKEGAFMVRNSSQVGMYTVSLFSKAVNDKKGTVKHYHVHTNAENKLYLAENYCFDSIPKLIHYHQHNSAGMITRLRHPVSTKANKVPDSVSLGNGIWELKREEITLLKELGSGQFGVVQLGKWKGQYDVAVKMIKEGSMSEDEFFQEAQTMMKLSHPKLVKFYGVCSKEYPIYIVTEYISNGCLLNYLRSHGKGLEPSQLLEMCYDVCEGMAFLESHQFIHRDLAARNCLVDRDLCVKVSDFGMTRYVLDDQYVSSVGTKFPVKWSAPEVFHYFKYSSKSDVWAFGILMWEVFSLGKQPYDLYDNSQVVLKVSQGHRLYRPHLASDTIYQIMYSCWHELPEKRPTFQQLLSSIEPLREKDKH
ASSAY_PROCEDURE: Millipore Kinase Profiler screening panel, BMX
Type: biochemical
READOUT_KIND: IC50 (nM)
Kindly answer with a numeric value in nM, unit omitted.

Inquiry: Provide the documented IC50 with BMX (Homo sapiens, UniProt P51813) as the system for C=CC(=O)N1CCC(F)(CNc2ncnc(N)c2-c2ccc(Oc3ccccc3)cc2)CC1
Reply text: 5

---

Tested on: SU-DHL-4-epst
ASSAY_PROCEDURE: Cell viability, ATPlite
Type: cell-based
REPORTED_CONDITIONS: Homo sapiens; SU-DHL-4-epst (GCB-DLBCL), 72 h
READOUT_KIND: pIC50
For clarity, pIC50 is expressed as the negative log10 of concentration in mol/L.

Inquiry: Name the reported pIC50 value associated with the compound C=CC(=O)N1CCC(F)(CNc2ncnc(N)c2-c2ccc(Oc3ccccc3)cc2)CC1 [TL-895]
Reply text: 4.92

---

System: U-2932
ASSAY_PROCEDURE: Cell viability, ATPlite
Format: cell-based
REPORTED_CONDITIONS: Homo sapiens, U2932; U-2932 (ABC-DLBCL), 72 h
READOUT_KIND: IC50 (µM)
Kindly answer with a numeric value in µM, unit omitted.

Inquiry: Name the reported IC50 value associated with the compound C=CC(=O)N1CCC(F)(CNc2ncnc(N)c2-c2ccc(Oc3ccccc3)cc2)CC1 [TL-895]
Reply text: 6.6

---

ASSAY_PROCEDURE: Cytotoxicity by ATP content (CellTiter-Glo)
Type: cell-based, human
REPORTED_CONDITIONS: primary human hepatocytes, 24 h
READOUT_KIND: EC50 at 24 h
Please provide the amount together with its unit, number first.

Inquiry: Name the reported EC50 at 24 h value associated with the compound C=CC(=O)N1CCC(F)(CNc2ncnc(N)c2-c2ccc(Oc3ccccc3)cc2)CC1
Reply text: 6.4 µM
